// data source = PubChem BioAssay (NCI)

Tested on: RXF 393 renal
procedure_text: NCI tumour cell line growth inhibition, 48 h
result_type: TGI (µM)
Answers are plain numbers, in µM.

Past entries and their recorded results:
>  <compound>
O=C(Nc1ccc(Cl)cc1)c1cc(S(=O)(=O)Nc2n[nH]c(Nc3ccc4ccccc4c3)n2)c(SSc2cc(Cl)c(C(=O)Nc3ccc(Cl)cc3)cc2S(=O)(=O)Nc2n[nH]c(Nc3ccc4ccccc4c3)n2)cc1Cl

>  <target_under_test>
RXF 393 renal

>  <output_unit>
µM

>  <TGI>
79.9

$$$$
>  <compound>
COC(=O)Nc1nc2ccc(Oc3ccc(NC(=O)Nc4ccccc4)cc3)cc2[nH]1

>  <target_under_test>
RXF 393 renal

>  <output_unit>
µM

>  <TGI>
0.533

$$$$
>  <compound>
CCS(=O)(=O)c1ccc(OC)c(Nc2ncc(-c3cccc(OC)c3)o2)c1

>  <target_under_test>
RXF 393 renal

>  <output_unit>
µM

>  <TGI>
19.7

$$$$
>  <compound>
CC(NC(=O)OCc1ccccc1)NC(=O)OC(C)(C)C (stereo not given)

>  <target_under_test>
RXF 393 renal

>  <output_unit>
µM

>  <TGI>
84.3

$$$$
>  <compound>
COc1ccccc1C[C@@H]1OC2(C=CC(=O)CC2SC(=O)c2ccccc2)O[C@H]1Cc1ccccc1OC (stereo not given in full)

>  <target_under_test>
RXF 393 renal

>  <output_unit>
µM

>  <TGI>
0.501

$$$$

Would you mind giving TGI for every compound in the list below?
1. CCN(CC)CCCC(C)Nc1c(C)cnc2cc(Cl)c(C)cc12 (stereo not given)
2. CCN1C(=O)CNc2ncc(-c3ccc(-c4ncn[nH]4)nc3C)nc21
3. CC(C)c1ccc(C(=O)Nc2sc3c(c2C(N)=O)CCC(=O)C3)cc1
4. O=c1[nH]c2cccc([N+](=O)[O-])c2c(=O)n1-c1ccc(Cl)cc1
5. COc1cc2c(/C=C3/C(=O)Nc4ccc(O)cc43)c(Cl)n(Cc3ccccc3)c2cc1C
6. COc1cc2c(cc1C)NC(=O)/C2=C/c1cccnc1
7. C=CCN1C(=O)/C(=C/c2ccc(Cl)cc2)N=C1SC/C=C/C

Return:
[26.6, 0.371, 1.49, 37.1, 5.06, 25, 55.3]

Enquiry: Could you share which TGI value was measured for COc1cc(C2=NN(C(C)=O)C(c3ccc(OC(C)=O)cc3OC(C)=O)O2)c(OC(C)=O)c2ccccc12 (stereo not given) ?
Return: 12.5
